Test system: CAKI-1
assay summary: NCI tumour cell line growth inhibition, 48 h
Active and inactive are the calls of the source. No stated cut-off is given here; in the data, active = GI50 up to about 1.1 µM and inactive = higher.
Response enum: true = active, false = inactive

C#CCOC(=O)C(N)CS (configuration not stated): false
COc1cc2c(cc1OCCCC(=O)Nc1cc(C(=O)Nc3cc(C(=O)Nc4cc(C(=O)NCCCN(C)C)n(C)n4)n(C)c3)n(C)c1)N=CC1CCCN1C2=O (configuration not stated): false
CN(C)CCCCN1CCc2c(n(C)c3ccccc23)C1=O: false
CC(=O)c1ccc(NCN2C(=O)c3ccccc3C2=O)cc1: false
O=C1CCC(NC(=O)c2ccccc2)C(=O)N1 (configuration not stated): false

State the result this test recorded for CC1=NNC(=O)C2CCC(=O)N12 (configuration not stated) . false

---

System: NCI-H460
assay summary: NCI tumour cell line growth inhibition, 48 h
Active and inactive are the calls of the source. No stated cut-off is given here; in the data, active = GI50 up to about 1.1 µM and inactive = higher.
Would you mind answering with one of these outcomes? active, inactive

Returns: the outcome recorded for O=C1Cc2ccccc2N1/N=C\c1ccc([N+](=O)[O-])cc1 in this assay. inactive

Record lookup: outcome of this test for CCOP(C)(=O)/C(Cc1ccc(OC)c(OC)c1)=N\O (configuration not stated) ? inactive

Per the records of this test, what outcome belongs to Cc1nc2ccccc2c(=O)n1/N=C/c1ccc(N(C)C)cc1 ? inactive

Entry COc1cc2c(NCCCCCCO[N+](=O)[O-])ncnc2c(OC)c1OC : call = ? inactive

Identify the outcome logged in this assay for the molecule shown: O=C(CC/C(CC(=O)c1ccc(Cl)cc1)=N\O)Nc1cccc(Cl)c1 inactive

Hello, I am checking results. What call was entered for O=C(O)CSc1nnc(CCCCCCCCc2nnc(SCC(=O)O)o2)o1 ? inactive

Any idea what this test logged for C/C=C/[P+](c1ccccc1)(c1ccccc1)c1ccccc1 ? inactive

Look up the recorded call for COC(=O)C(Cc1c[nH]c2ccccc12)NP(=O)(O)OCC1OC(n2cc(F)c(=O)[nH]c2=O)CC1O (configuration not stated) in this test. inactive

Please state the recorded outcome for this molecule: Cc1cc(C)c2c(c1)CN1CN2Cc2cc(C)cc(C)c21 inactive

Test call, this molecule: CN(C)c1ccc(/C=C(\C#N)C(N)=C(C#N)C#N)cc1 inactive

What classification did CC(C)c1ccc2nc3ccc(C(=O)NCCN4CCN(c5ccccc5)CC4)cn3c(=O)c2c1 end up with in this test? inactive

Each molecule tested received a call. Report the one for Cc1cccc2nc3n(c12)C(=O)c1ccccc1-3 . inactive

Test call, this molecule: CC1(C)OCC2OC3([C@@H]4OC(C)(C)O[C@H]4CO)OC(C)(C)OC3C2O1 (some centres not stated) inactive

Hi team, can someone confirm the assay call for C/C(=N\NC(=S)N1CCN(C2CCCCCC2)CC1)c1ccccn1 ? active

State the result this test recorded for OCC(O)C(OC1OC(CO)C(O)C(O)C1O)c1nn(-c2ccc(Cl)cc2)c2nc3cc(Cl)ccc3nc12 (configuration not stated) . inactive

Please share the test call associated with C=C(CN(C)C)C(=O)c1ccccc1OC . inactive

Assay result, entry COc1cc2c(cc1O)C1Cc3ccc(OC)c(O)c3C(C2)N1C (configuration not stated) — outcome? inactive

Field: outcome | Entry: C=C[C@]1(C)CC(O)C2C(=C)C(=O)OC2[C@H]1C(=C)C=O (some centres not stated) inactive

What classification did CCC(CCCCC1CC[C@H]2CC(=O)C[C@@H]12)OC (some centres not stated) end up with in this test? inactive

Returns: the outcome recorded for O=C1c2ccccc2C2CNC1(O)c1ccccc12 (configuration not stated) in this assay. inactive

So what was the verdict on Nc1ccccc1NC(=O)c1ccc(CNC(=O)OCc2cccnc2)cc1 in this test? active

Dear all, I need the recorded test outcome for CCCCOC(=O)/C(CC(=O)C=C(C)C)=N\NS(=O)(=O)c1ccc(C)cc1 , thank you. inactive
